# Tested on: ATP;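 also: ATP exposure 15 min at 22 °C before imaging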
# PROTOCOL DESCRIPTION: switch fluorescence ratio, 500 uM ATP over buffer (Cy3 cluster intensity, sum of 5 cycles each) (fold (ratio)); higher = stronger signal-on switching upon ATP binding; sequences stand for … in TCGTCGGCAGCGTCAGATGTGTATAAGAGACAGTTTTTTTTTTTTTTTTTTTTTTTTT…TC
# TEST CONTEXT: aptamer strand: ATP DNA aptamer (quencher-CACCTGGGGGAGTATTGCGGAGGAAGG + anchor), 100 nM annealed; ATP concentration: 500 uM
Rule: True for switch fluorescence ratio not less than 1, False for anything less.

SEQUENCE STRING	ASSIGNED CLASS
TATGTATCGC	True
TAATAGGTTG	False
TTTTTGTGTA	False
CGAGCTGCAT	True
TAACTTGCTC	True
CATTTCAGGT	True
GTGTGAAGGC	True
CGCTAGGTGT	True
GCATTGGGTG	True
CATAGTTGTT	True
GCGGCACAAT	True
TGATGGCAAC	True
CTCAGGGCCG	True
GGCAAAGGTA	False
GAGGTAGTGG	False
AACGTATGGG	True
CCGTCTACGC	True
ATCACGGGAA	True
TTTCGCGGGC	True
TCAAGCACTT	True
TTAGATTTTA	False
TTTGCTGTTG	False
GAAAGGGTGT	True
CTATGTGTCT	False
TCTTACGGCT	True
GCCCGGCCAG	False
AACCGTTTTT	True

----------
# System: ATP;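 also: ATP exposure 15 min at 22 °C before imaging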
# PROTOCOL DESCRIPTION: switch fluorescence ratio, 500 uM ATP over buffer (Cy3 cluster intensity, sum of 5 cycles each) (fold (ratio)); higher = stronger signal-on switching upon ATP binding; sequences stand for … in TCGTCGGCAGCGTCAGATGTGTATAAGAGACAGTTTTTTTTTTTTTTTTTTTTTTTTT…TC
# TEST CONTEXT: aptamer strand: ATP DNA aptamer (quencher-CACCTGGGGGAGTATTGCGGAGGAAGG + anchor), 100 nM annealed; ATP concentration: 500 uM
Listed here are sequences together with their documented switch fluorescence ratio.

SEQUENCE STRING	switch fluorescence ratio
AGGGGTGATG	0.983
ACGGGGGATG	0.995
ATGTAGCATT	1.21
TGTTTTGAAT	1.01
GTTTCTTAGC	0.998
GTTGGTTCCG	0.996
ATTCGTGCGC	1.07
AACCAGAAGG	1.01
TATTTTGCGT	1
GTGCGTTTGG	0.971

----------
# Tested on: ATP;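 also: ATP exposure 15 min at 22 °C before imaging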
# PROTOCOL DESCRIPTION: switch fluorescence ratio, 500 uM ATP over buffer (Cy3 cluster intensity, sum of 5 cycles each) (fold (ratio)); higher = stronger signal-on switching upon ATP binding; sequences stand for … in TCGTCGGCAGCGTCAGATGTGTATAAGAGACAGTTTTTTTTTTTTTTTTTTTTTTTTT…TC
# TEST CONTEXT: aptamer strand: ATP DNA aptamer (quencher-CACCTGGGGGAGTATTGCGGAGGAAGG + anchor), 100 nM annealed; ATP concentration: 500 uM
PARAMETER MEASURED: switch fluorescence ratio

SEQUENCE STRING	EXPERIMENTAL VALUE
GTGTTTGGTG	1
TTTTAATGGA	1.03
CAATTGGAAC	0.996
AATGTGGCTA	1.01
AGTGTAGTCT	0.961
CAAAGGATAC	1.2
TCATAGTTGT	1.01
TATGCCTTCG	1.09
GGTTTGTGGG	0.968
GTAATAGTAT	1.01
GGATTAGTTT	0.994
TAATGGTTTT	1.02
GCCTGCTAGC	1.01
TTGGGAATCC	1.03
ATGAGGGT	1.01
TTAAAGGTTA	0.989
ATTGCCCGTT	1.09
AAGCCTGGAG	1.02
TTTTTTAAAG	0.998
TGAATGGGGA	1.01
TTTAGAGGGA	1.02
